Measured on: CDK3 (human)
Measurement description: Caliper, Mobility shift assay off-chip
Condition summary: compound 0.02 µM
Endpoint label: inhibition (%)
# value in %; strip the unit string

Solved entries:
>>> quantitative_readout("CNC(=O)c1cc(Oc2ccc(NC(=O)Nc3ccc(Cl)c(C(F)(F)F)c3)cc2)ccn1")
-4.1
>>> quantitative_readout("COc1cc2c(Oc3ccc4[nH]c(C)cc4c3F)ncnc2cc1OCCCN1CCCC1")
-3.3

Bench note: what inhibition did CNC(=O)c1ccccc1Sc1ccc2c(/C=C/c3ccccn3)n[nH]c2c1 show?
-4.8

Which inhibition is reported for this compound? Cc1ccc(Nc2nccc(N(C)c3ccc4c(C)n(C)nc4c3)n2)cc1S(N)(=O)=O
-2.4

* * *

Listing of entries alongside the reported inhibition.
Measured on: EPHA6 (human)
Measurement description: Caliper, Mobility shift assay off-chip
Condition summary: compound 0.2 µM
State the value, then name its unit.

Some solved cases for reference:
>>> result("CNC(=O)c1cc(Oc2ccc(NC(=O)Nc3ccc(Cl)c(C(F)(F)F)c3)cc2)ccn1")
"77.8%"
>>> result("Cc1ccc(Nc2nccc(N(C)c3ccc4c(C)n(C)nc4c3)n2)cc1S(N)(=O)=O")
"22.3%"
>>> result("COc1cc2c(Oc3ccc4[nH]c(C)cc4c3F)ncnc2cc1OCCCN1CCCC1")
"95.9%"

Report inhibition for CCN(CC)CCNC(=O)c1c(C)[nH]c(/C=C2\C(=O)Nc3ccc(F)cc32)c1C please.
43.4%

* * *

Measured on: PLK1 (human) (UniProt P53350)
Sequence (P53350 whole entry, looked up): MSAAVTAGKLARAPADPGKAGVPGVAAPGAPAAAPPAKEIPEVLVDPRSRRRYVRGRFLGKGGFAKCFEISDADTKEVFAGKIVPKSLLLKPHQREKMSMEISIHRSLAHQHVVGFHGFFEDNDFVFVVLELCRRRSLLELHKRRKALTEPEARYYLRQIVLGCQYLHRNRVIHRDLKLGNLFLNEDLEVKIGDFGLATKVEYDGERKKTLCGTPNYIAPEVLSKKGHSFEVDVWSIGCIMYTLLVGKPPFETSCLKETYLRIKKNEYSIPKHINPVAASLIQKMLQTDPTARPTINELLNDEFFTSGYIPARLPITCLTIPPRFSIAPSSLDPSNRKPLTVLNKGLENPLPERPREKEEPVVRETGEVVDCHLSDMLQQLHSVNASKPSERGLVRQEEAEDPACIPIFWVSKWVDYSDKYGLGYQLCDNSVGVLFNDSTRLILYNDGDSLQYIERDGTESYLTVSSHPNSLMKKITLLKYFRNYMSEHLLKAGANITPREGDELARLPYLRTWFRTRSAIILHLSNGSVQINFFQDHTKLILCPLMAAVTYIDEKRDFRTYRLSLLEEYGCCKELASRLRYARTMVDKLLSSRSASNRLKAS
Measurement description: Caliper, Mobility shift assay off-chip
Condition summary: compound 0.02 µM
In this section, each of the molecules is paired with its reported inhibition.
Just the number please, in %, no unit attached.

Please review the following examples before continuing.
>>> quantitative_readout("Cc1ccc(Nc2nccc(N(C)c3ccc4c(C)n(C)nc4c3)n2)cc1S(N)(=O)=O")
-0.7
>>> quantitative_readout("CNC(=O)c1ccccc1Sc1ccc2c(/C=C/c3ccccn3)n[nH]c2c1")
-2.2
>>> quantitative_readout("COc1cc2c(Oc3ccc4[nH]c(C)cc4c3F)ncnc2cc1OCCCN1CCCC1")
-0.1

Note: attention shifts to another entry.
Which inhibition value is on record for CNC(=O)c1cc(Oc2ccc(NC(=O)Nc3ccc(Cl)c(C(F)(F)F)c3)cc2)ccn1 ?
-3.1

* * *

Below: a set of entries, each annotated with reported inhibition.
Measured on: PRKACG (human) (UniProt P22612)
Sequence (P22612 whole entry, looked up): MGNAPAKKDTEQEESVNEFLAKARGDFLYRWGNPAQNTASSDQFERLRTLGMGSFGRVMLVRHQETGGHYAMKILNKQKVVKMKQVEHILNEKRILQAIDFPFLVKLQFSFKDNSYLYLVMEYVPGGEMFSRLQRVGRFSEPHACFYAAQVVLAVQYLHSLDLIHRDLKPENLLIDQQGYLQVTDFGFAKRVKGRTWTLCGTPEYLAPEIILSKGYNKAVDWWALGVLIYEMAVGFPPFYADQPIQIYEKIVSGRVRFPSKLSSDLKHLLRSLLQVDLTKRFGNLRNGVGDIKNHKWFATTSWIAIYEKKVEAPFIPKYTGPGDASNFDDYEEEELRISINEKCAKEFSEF
Measurement description: Caliper, Mobility shift assay off-chip
Condition summary: compound 0.2 µM
A number alone suffices; assume %.

>>> quantitative_readout("Cc1ccc(Nc2nccc(N(C)c3ccc4c(C)n(C)nc4c3)n2)cc1S(N)(=O)=O")
-6.6
>>> quantitative_readout("COc1cc2c(Oc3ccc4[nH]c(C)cc4c3F)ncnc2cc1OCCCN1CCCC1")
-1.4
>>> quantitative_readout("CCN(CC)CCNC(=O)c1c(C)[nH]c(/C=C2\\C(=O)Nc3ccc(F)cc32)c1C")
-4.4

Now for a further compound.
Sample CNC(=O)c1cc(Oc2ccc(NC(=O)Nc3ccc(Cl)c(C(F)(F)F)c3)cc2)ccn1 — what was its inhibition?
-6

* * *

Measured on: EPHB1 (human) (UniProt P54762)
Sequence (P54762 whole entry, looked up): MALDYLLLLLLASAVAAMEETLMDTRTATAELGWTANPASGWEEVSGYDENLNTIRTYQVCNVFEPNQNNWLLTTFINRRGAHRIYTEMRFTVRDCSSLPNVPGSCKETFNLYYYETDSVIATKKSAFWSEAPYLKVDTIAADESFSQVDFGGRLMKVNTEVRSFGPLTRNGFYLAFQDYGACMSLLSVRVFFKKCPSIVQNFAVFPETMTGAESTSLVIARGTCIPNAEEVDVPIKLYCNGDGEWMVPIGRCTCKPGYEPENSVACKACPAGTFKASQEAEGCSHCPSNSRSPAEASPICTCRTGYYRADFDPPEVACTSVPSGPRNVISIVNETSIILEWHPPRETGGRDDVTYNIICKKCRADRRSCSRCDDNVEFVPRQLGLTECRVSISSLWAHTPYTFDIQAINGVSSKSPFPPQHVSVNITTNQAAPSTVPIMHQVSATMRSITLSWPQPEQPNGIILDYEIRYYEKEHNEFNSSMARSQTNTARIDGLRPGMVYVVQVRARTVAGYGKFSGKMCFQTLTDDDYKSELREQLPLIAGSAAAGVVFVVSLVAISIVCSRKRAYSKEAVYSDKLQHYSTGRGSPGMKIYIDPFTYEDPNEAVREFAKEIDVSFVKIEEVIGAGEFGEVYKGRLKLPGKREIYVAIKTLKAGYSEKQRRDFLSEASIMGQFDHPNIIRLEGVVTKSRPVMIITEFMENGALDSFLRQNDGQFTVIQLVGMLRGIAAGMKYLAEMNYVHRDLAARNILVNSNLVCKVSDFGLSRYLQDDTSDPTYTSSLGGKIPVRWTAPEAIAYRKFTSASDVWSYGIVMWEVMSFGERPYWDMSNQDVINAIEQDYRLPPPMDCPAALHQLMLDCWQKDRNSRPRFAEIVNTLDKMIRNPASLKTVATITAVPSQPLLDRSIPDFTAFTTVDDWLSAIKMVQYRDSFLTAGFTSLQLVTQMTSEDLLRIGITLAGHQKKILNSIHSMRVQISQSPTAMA
Measurement description: Caliper, Mobility shift assay off-chip
Condition summary: compound 0.02 µM
Endpoint label: inhibition
Number first, unit second: that is the form wanted.

>>> result("CNC(=O)c1cc(Oc2ccc(NC(=O)Nc3ccc(Cl)c(C(F)(F)F)c3)cc2)ccn1")
"-1.8%"
>>> result("CNC(=O)c1ccccc1Sc1ccc2c(/C=C/c3ccccn3)n[nH]c2c1")
"-6.5%"
>>> result("Cc1ccc(Nc2nccc(N(C)c3ccc4c(C)n(C)nc4c3)n2)cc1S(N)(=O)=O")
"-1%"

Now consider a different compound.
What value of inhibition has been reported for the following compound? COc1cc2c(Oc3ccc4[nH]c(C)cc4c3F)ncnc2cc1OCCCN1CCCC1
-7.8%
